// provenance: patent US20210380675A1

Catalogue of binders with associated pKd
Molecular target: T1, human IL-36γ, truncated (human, UniProt Q9NZH8 18-169)
T1 construct: Bought from R&D Systems (cat 6835-IL); also called human IL-36 gamma; hIL-36gamma
T1 sequence: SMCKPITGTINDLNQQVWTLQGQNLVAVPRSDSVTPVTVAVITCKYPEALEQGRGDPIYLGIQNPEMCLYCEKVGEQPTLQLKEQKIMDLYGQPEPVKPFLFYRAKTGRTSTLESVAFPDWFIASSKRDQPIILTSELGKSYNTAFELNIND
Test: SPR, Biacore T200, antibody on chip, IL-36 as analyte, 1:1 Langmuir fit
Protocol: Antibodies were further tested for their binding to recombinant human or cynomolgus IL36α, IL-36γ in Biacore assays. In order to kinetically analyze the binding activity of the IL-36α and IL-36γ dual antagonist antibodies, the binding activity to human and cynomolgus IL-36α and IL-36γ was measured by surface plasmon resonance method (SPR). All of the following manipulations were carried out using a Biacore T200 (GE Healthcare Life Sciences, Pittsburgh, Pa.). […]
pKd: −log10 of the molar value.
assayReadout: pKd

binder="144D666C (antibody, V domains shown, Mouse monoclonal from hybridoma; mouse IgG heavy and lambda light chain) VH: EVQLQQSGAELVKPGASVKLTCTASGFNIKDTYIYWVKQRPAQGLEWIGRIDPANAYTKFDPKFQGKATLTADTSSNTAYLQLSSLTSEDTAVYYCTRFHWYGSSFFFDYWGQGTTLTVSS VL: QAVVTQESALTTSPGETVTLTCRSSTGAVTTSNYANWVQEKPDHLFTGLIGGTDNRPPGVPARFSGSLIGDKAALTITGAQTEDEAIYFCALWYSNLWVFGGGTKLTVL" experimentalvalue=8.97
binder="144D464A (antibody, V domains shown, Mouse monoclonal from hybridoma; mouse IgG heavy and lambda light chain; also called mouse antibody 144D464A) VH: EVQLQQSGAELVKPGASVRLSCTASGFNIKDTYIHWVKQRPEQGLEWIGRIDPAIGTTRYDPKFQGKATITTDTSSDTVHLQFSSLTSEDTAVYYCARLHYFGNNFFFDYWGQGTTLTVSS VL: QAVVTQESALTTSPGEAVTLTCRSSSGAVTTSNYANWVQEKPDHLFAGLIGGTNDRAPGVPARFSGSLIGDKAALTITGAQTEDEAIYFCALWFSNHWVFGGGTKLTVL" experimentalvalue=8.42
